Cited source: patent US7759101B2

Let's look at some molecules and their measured Percentage of C—K in the reaction product.
System: ginsenoside glycosidase I
Experiment: Hydrolysis of ginsenosides with Fraction 36 (ginsenoside glycosidase I)
Assay type: biochemical, Aspergillus niger
Conditions: Fraction 36; substrates Rb1, Rb2, Rc, Rd 0.5%; Rg3, F2, Rh2, C—K, Rg2 0.05%; pH 5.0, 30° C.
Just the number please, in %, no unit attached.

The cases that follow already have their Percentage of C—K in the reaction product on record.
• CC(C)=CCC[C@](C)(O[C@@H]1O[C@H](CO[C@@H]2O[C@@H](CO)[C@H](O)[C@H]2O)[C@@H](O)[C@H](O)[C@H]1O)[C@H]1CC[C@]2(C)[C@@H]1[C@H](O)C[C@@H]1[C@@]3(C)CC[C@H](O[C@@H]4O[C@H](CO)[C@@H](O)[C@H](O)[C@H]4O[C@@H]4O[C@H](CO)[C@@H](O)[C@H](O)[C@H]4O)C(C)(C)[C@@H]3CC[C@]12C [Rc, ginsenoside Rc] = 52
• CC(C)=CCC[C@](C)(O[C@@H]1O[C@H](CO[C@@H]2O[C@H](CO)[C@@H](O)[C@H](O)[C@H]2O)[C@@H](O)[C@H](O)[C@H]1O)[C@H]1CC[C@]2(C)[C@@H]1[C@H](O)C[C@@H]1[C@@]3(C)CC[C@H](O[C@@H]4O[C@H](CO)[C@@H](O)[C@H](O)[C@H]4O[C@@H]4O[C@H](CO)[C@@H](O)[C@H](O)[C@H]4O)C(C)(C)[C@@H]3CC[C@]12C [Rb1, ginsenoside Rb1] = 49

Turning now to a further record.
Using the record for CC(C)=CCC[C@](C)(O[C@@H]1O[C@H](CO)[C@@H](O)[C@H](O)[C@H]1O)[C@H]1CC[C@]2(C)[C@@H]1[C@H](O)C[C@@H]1[C@@]3(C)CC[C@H](O[C@@H]4O[C@H](CO)[C@@H](O)[C@H](O)[C@H]4O[C@@H]4O[C@H](CO)[C@@H](O)[C@H](O)[C@H]4O)C(C)(C)[C@@H]3CC[C@]12C [Rd, ginsenoside Rd] , report its Percentage of C—K in the reaction product.
25
